Target: T1, recombinant hCTLA-4-mFc (human CTLA-4 extracellular domain with a C-terminal Fc portion of mouse IgG2a) (human)
T1 construct: also called dimeric CTLA-4 protein
T1 sequence (chain, as listed by the source limits assumed): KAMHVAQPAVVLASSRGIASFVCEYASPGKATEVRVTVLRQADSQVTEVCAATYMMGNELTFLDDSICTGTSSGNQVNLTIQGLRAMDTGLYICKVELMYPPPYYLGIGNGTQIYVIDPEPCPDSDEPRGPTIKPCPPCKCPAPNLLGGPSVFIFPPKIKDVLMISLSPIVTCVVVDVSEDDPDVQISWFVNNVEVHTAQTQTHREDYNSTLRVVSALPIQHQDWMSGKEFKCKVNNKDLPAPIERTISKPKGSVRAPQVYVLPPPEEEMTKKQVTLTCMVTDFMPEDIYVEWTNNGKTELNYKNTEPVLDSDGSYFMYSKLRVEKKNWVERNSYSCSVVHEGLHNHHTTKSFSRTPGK
Assay: competition ELISA, 200 pM hCTLA-4-mFc on plate-coated hB7-1-hIgG1-6His
Observed property: pIC50
As a rule, pIC50 stands for the negative log10 of the concentration, concentration in M.

Data request: State its pIC50: H1H20386N (antibody, human IgG1, V domains shown, here with human IgG1 Fc (H1H)) VH: QVQLVESGGGVVQPGRSLRLSCAASGFTVNRYGIHWVRQAPGKGLEWVAVTWYDGRNKYFADSVKGRFSFSRDSSTNTLYLQMNSLRAEDTAVYYCARGGLFGYFDYWGQGTLVTVSS VL: EIVLTQSPDTLSLSPGERATLSCRASQSVAGSYLAWYQQKPGQAPRLLIYGASSRATGIPDRFSGSGSGTDFTLTISRLEPEDFAVYYCQQYGTSPWTFGQGTKVEIT
Data returned: 7.74

Data request: State its pIC50: H1H19269P (antibody, human IgG1, V domains shown) VH: EVQLVESGGGLVQPGGSLKLSCAASGFTFSGSAMHWVRQASGKGLEWVGRIRGKANSFATAYSASVKGRFTISRDDSKNTASLQMNSLRTEDTAVYFCTREDQQLVRPYYYHYGMDVWGQGTTVTVSS VL: DIQMTQSPSSLSASVGDRVTITCRTSQSITNYLNWYQQKPGKAPKLLIYATASLQSGVPSRFSGSGSETDFTLTISSLQPEDFATYYCQQSYSTPLTFGGGTKVEIK
Data returned: 10.00
